Peptide text beside a SMILES is read from it.
These compounds were tested on SH3PXD2A-1 SH3 domain (aa 166-225) (Homo sapiens); Kd is the recorded read-out.
Sequence (Q5TCZ1 166-225): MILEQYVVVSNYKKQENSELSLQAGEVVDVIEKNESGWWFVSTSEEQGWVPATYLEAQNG

Below: 3 compounds and their reported Kd.
# COMPOUND, Kd
measured = [
    ("CC[C@H](C)[C@H](N)C(=O)N[C@@H](C)C(=O)NCC(=O)N1CCC[C@H]1C(=O)N1CCC[C@H]1C(=O)N[C@H](C(=O)N1CCC[C@H]1C(=O)N1CCC[C@H]1C(=O)N[C@@H](CCCNC(=N)N)C(=O)N[C@@H](CCC(N)=O)C(=O)N[C@@H](CO)C(=O)O)C(C)C [Peptide P9] (H-IAGPPVPPRQS-OH)", "> 200 µM"),
    ("CC[C@H](C)[C@H](NC(=O)[C@H](Cc1c[nH]cn1)NC(=O)[C@@H](N)CCC(N)=O)C(=O)N1CCC[C@H]1C(=O)N[C@@H](CCCCN)C(=O)N[C@@H](CC(C)C)C(=O)N1CCC[C@H]1C(=O)N1CCC[C@H]1C(=O)N[C@@H](CCCCN)C(=O)N[C@H](C(=O)N[C@@H](Cc1ccc(O)cc1)C(=O)O)[C@@H](C)O [Peptide P10] (H-QHIPKLPPKTY-OH; N-terminus and C-terminus assumed)", "> 200 µM"),
    ("CC(C)C[C@H](NC(=O)[C@@H]1CCCN1C(=O)[C@@H](NC(=O)[C@H](CCCNC(=N)N)NC(=O)[C@@H]1CCCN1C(=O)[C@H](CO)NC(=O)[C@H](CC(N)=O)NC(=O)[C@@H]1CCCN1C(=O)[C@H](C)NC(=O)[C@@H](N)CO)[C@@H](C)O)C(=O)N[C@H](C(=O)N1CCC[C@H]1C(=O)N1CCC[C@H]1C(=O)N1CCC[C@H]1C(=O)N[C@@H](C)C(=O)N[C@@H](CO)C(=O)O)[C@@H](C)O [Peptide P1] (H-SAPNSPRTPLTPPPAS-OH)", "> 200 µM"),
]

Exam item: Short answer please: Kd, SH3PXD2A-1 SH3 domain (aa 166-225) (Homo sapiens), entry CC(C)C[C@H](NC(=O)[C@H](Cc1c[nH]cn1)NC(=O)[C@H](CC(C)C)NC(=O)[C@@H]1CCCN1C(=O)[C@H](CO)NC(=O)[C@H](CO)NC(=O)[C@@H](N)CO)C(=O)N[C@@H](CCC(N)=O)C(=O)N1CCC[C@H]1C(=O)N1CCC[C@H]1C(=O)N1CCC[C@H]1C(=O)N[C@@H](CC(C)C)C(=O)NCC(=O)N[C@@H](CCCCN)C(=O)N[C@@H](CCCCN)C(=O)O [Peptide P6] (H-SSSPLHLQPPPLGKK-OH; N-terminus and C-terminus assumed)
Marked response: > 200 µM

Exam item: Please give the result for CC(C)[C@H](NC(=O)[C@@H]1CCCN1C(=O)[C@@H]1CCCN1C(=O)[C@H](C)NC(=O)[C@H](CCC(=O)O)NC(=O)[C@H](CS)NC(=O)[C@@H](N)CCCNC(=N)N)C(=O)N1CCC[C@H]1C(=O)N1CCC[C@H]1C(=O)N[C@@H](CCCNC(=N)N)C(=O)N[C@@H](CCCNC(=N)N)C(=O)N[C@@H](CCC(=O)O)C(=O)N[C@@H](CCCNC(=N)N)C(=O)NCC(=O)O [RP2, reference compound] (H-RCEAPPVPPRRERG-OH) too.
Marked response: 21 µM
